The origin of these recorded values is ChEMBL document CHEMBL1132548.

- system.name: Mu-type opioid receptor (Cavia porcellus, UniProt P97266)
- Sequence (P97266 whole entry): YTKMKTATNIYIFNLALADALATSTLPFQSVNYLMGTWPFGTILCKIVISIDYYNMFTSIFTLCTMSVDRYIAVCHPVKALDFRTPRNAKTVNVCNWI
- assay.comment: Agonist activity using strips of guinea pig ileum longitudinal muscle myenteric plexus.

[
  {
    "compound": "CC(C)(C)c1ccc(C(c2cccc(O)c2)C2CCN(Cc3ccccc3)CC2)cc1 (stereo unspecified)",
    "system.name": "Mu-type opioid receptor (Cavia porcellus, UniProt P97266)",
    "unit.text": "µM",
    "IC50": 15.6
  }
]

* * *

- system.name: Delta-type opioid receptor (Rattus norvegicus, UniProt P33533)
- Sequence (P33533 whole entry): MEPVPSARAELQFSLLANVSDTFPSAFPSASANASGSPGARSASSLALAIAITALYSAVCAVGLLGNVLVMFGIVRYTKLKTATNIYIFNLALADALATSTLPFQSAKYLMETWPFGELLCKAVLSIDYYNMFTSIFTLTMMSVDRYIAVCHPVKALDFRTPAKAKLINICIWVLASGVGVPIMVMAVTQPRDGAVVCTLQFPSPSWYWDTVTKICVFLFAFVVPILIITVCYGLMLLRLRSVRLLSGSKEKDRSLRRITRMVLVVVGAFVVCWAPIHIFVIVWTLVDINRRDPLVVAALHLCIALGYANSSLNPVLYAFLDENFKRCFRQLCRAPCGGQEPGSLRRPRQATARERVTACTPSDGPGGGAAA
- assay.comment: In vitro inhibition of [3H]deltorphin binding to Opioid receptor delta 1 using rat brain membranes.
- Type: cell membranes, Membrane
pIC50: −log10 of the molar value.
Entries and their measured pIC50 follow.

[
  {
    "compound": "CC(C)(C)c1ccc(C(c2cccc(O)c2)N2CCN(Cc3ccccc3)C[C@@H]2Cc2ccccc2)cc1 (stereo in doubt; 15c1)",
    "reading.qualifier": "<",
    "pIC50": 5.00
  },
  {
    "compound": "CC(C)(C)c1ccc(C(c2cccc(O)c2)N2CCN(Cc3ccccc3)C[C@@H]2CO)cc1 (some centres not stated)",
    "reading.qualifier": "=",
    "pIC50": 7.42
  },
  {
    "compound": "CC(C)(C)c1ccc(C(c2cccc(O)c2)N2CCN(Cc3ccccc3)C[C@@H]2COCc2ccccc2)cc1 (some centres not stated)",
    "reading.qualifier": "=",
    "pIC50": 7.42
  },
  {
    "compound": "C[C@H]1CN(Cc2ccccc2)CCN1C(c1ccc(C(C)(C)C)cc1)c1cccc(O)c1 (some centres not stated)",
    "reading.qualifier": "=",
    "pIC50": 7.96
  },
  {
    "compound": "CC(C)(C)c1ccc(C(c2cccc(O)c2)N2CCC(Cc3ccccc3)CC2)cc1 (configuration not stated)",
    "reading.qualifier": "=",
    "pIC50": 4.90
  },
  {
    "compound": "CC(C)(C)c1ccc(C(c2cccc(O)c2)C2CCN(Cc3ccccc3)CC2)cc1 (configuration not stated)",
    "reading.qualifier": "=",
    "pIC50": 7.48
  },
  {
    "compound": "CC(C)(C)c1ccc(C(c2cccc(O)c2)N2CCN(Cc3ccccc3)C[C@@H]2Cc2ccccc2)cc1 (stereo in doubt; 15c2)",
    "reading.qualifier": "=",
    "pIC50": 4.67
  }
]

* * *

- system.name: Mu-type opioid receptor (Mus musculus, UniProt P42866)
- Sequence (P42866 whole entry): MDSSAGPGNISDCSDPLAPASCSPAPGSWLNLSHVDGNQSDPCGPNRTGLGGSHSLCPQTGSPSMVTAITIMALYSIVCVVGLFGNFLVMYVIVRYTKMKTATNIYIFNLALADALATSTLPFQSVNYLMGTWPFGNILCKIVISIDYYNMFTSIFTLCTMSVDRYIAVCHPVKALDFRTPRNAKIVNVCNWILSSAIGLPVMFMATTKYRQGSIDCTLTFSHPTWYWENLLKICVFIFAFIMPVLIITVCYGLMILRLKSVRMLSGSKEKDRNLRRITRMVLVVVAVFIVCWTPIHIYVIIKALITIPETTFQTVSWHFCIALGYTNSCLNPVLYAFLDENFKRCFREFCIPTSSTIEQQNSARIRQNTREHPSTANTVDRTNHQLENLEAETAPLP
- assay.comment: Agonist activity using electrically induced smooth muscle contraction of mouse vas deferens.
- Format: functional
pIC50: −log10 of the molar value.

[
  {
    "compound": "CC(C)(C)c1ccc(C(c2cccc(O)c2)C2CCN(Cc3ccccc3)CC2)cc1 (stereo not drawn)",
    "system.name": "Mu-type opioid receptor (Mus musculus, UniProt P42866)",
    "pIC50": 6.41
  },
  {
    "compound": "CC(C)(C)c1ccc(C(c2cccc(O)c2)N2CCN(Cc3ccccc3)C[C@@H]2CO)cc1 (stereo partly drawn)",
    "system.name": "Mu-type opioid receptor (Mus musculus, UniProt P42866)",
    "pIC50": 5.65
  },
  {
    "compound": "C[C@H]1CN(Cc2ccccc2)CCN1C(c1ccc(C(C)(C)C)cc1)c1cccc(O)c1 (stereo partly drawn)",
    "system.name": "Mu-type opioid receptor (Mus musculus, UniProt P42866)",
    "pIC50": 6.54
  }
]

* * *

- system.name: Delta-type opioid receptor (Rattus norvegicus, UniProt P33533)
- assay.comment: In vitro inhibition of [3H]- [p-Cl-Phe4]DPDPE binding to Opioid receptor delta 1 using rat brain membranes.
- Format: cell membranes, Membrane
pIC50: −log10 of the molar value.

[
  {
    "smiles.text": "S=C1SCN(Cc2ccccc2)CN1Cc1ccccc1",
    "pIC50": 4.54
  },
  {
    "smiles.text": "O=C(OCc1ccc(O)cc1)N1CSC(=S)N(Cc2ccccc2)C1",
    "pIC50": 4.35
  }
]

* * *

- system.name: Mu-type opioid receptor (Rattus norvegicus)
- Sequence (P33535 whole entry): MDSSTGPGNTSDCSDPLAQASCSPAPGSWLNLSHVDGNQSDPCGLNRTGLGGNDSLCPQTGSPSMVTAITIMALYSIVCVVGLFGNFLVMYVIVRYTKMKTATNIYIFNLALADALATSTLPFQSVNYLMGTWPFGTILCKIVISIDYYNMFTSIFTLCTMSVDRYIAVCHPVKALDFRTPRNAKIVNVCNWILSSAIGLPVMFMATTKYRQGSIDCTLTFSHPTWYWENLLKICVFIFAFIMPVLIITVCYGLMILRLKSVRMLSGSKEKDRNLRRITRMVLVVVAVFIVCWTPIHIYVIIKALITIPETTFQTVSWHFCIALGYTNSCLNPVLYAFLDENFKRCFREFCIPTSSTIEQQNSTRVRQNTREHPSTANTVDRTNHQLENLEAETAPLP
- assay.comment: In vitro inhibition of [3H]DAMGO (Tyr-D-Ala-Gly-(Me)-Phe-Gly-ol) binding to Opioid receptor mu 1 using rat brain membranes
pIC50: −log10 of the molar value.
Entries and their measured pIC50 follow.

[
  {
    "compound": "CC(C)(C)c1ccc(C(c2cccc(O)c2)N2CCN(Cc3ccccc3)C[C@@H]2Cc2ccccc2)cc1 (stereo in doubt; 15c2)",
    "pIC50": 4.33
  },
  {
    "compound": "CC(C)(C)c1ccc(C(c2cccc(O)c2)N2CCC(Cc3ccccc3)CC2)cc1 (centres undefined)",
    "pIC50": 4.64
  },
  {
    "compound": "S=C1SCN(Cc2ccccc2)CN1Cc1ccccc1",
    "pIC50": 4.55
  },
  {
    "compound": "C[C@H]1CN(Cc2ccccc2)CCN1C(c1ccc(C(C)(C)C)cc1)c1cccc(O)c1 (some centres undefined)",
    "pIC50": 5.48
  }
]
